ASSAYED TARGET: human tau oligomers (human, UniProt P10636-6 2-383, limits assumed)
Sequence (P10636 other isoform, or with tags, fused parts or gaps limits assumed): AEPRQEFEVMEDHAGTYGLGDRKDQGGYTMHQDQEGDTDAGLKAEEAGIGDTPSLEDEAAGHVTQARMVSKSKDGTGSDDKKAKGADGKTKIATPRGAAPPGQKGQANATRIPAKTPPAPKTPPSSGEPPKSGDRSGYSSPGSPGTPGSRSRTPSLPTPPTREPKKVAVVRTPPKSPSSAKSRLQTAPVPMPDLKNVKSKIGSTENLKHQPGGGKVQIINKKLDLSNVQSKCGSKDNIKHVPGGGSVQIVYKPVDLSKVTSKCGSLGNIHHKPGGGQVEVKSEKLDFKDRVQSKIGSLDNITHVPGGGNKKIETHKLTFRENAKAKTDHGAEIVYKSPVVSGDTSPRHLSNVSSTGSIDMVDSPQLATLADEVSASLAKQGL
ASSAY EXPLANATION: cell-based or functional assay
OBSERVATION TYPE: LDH released by primary neurons with tau oligomers, antibody at 0.2 molar equivs

BINDER	RECORDED MEASUREMENT
mouse 9F5 antibody (antibody, mouse IgG1, V domains shown, also called m9F5; murine 9F5) VH: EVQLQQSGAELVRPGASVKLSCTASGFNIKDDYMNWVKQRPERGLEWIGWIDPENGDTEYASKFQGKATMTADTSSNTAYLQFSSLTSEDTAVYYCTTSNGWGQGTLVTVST VL: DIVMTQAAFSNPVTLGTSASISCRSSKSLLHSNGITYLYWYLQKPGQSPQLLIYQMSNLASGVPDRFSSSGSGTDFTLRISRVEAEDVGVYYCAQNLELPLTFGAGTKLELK	155 % of control
